Biological target: Mannose-6-phosphate isomerase (Homo sapiens) (UniProt P34949)
Sequence (P34949 whole entry, looked up): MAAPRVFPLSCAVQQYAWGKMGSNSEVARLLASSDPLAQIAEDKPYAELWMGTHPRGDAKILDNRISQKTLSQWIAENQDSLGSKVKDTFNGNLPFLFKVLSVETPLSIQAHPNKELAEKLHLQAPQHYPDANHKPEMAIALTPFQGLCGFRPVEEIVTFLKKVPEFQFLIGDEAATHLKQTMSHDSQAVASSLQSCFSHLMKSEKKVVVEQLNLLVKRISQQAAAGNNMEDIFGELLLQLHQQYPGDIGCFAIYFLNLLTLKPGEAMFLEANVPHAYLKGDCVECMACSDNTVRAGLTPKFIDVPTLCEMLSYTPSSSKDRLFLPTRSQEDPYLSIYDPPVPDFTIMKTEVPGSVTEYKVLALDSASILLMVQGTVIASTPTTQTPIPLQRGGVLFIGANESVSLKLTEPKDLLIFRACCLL
Test: MPI inhibition at elevated mannose 6-phosphate – biochemical, fluorescence intensity, high mannose 6-phosphate, primary screen (AID 1220)
Settings: recombinant PMI enzyme, coupled fluorescence intensity; at 20 µM
In all, about 190,000 compounds went through this assay and about 1,300 (0.68%) were called active. Cut-off read from the data, not from the text of the source: active = inhibition above about 50%; inactive = the rest. Only a selection was taken, and actives are over-represented in it overall.
Outcomes: active, inactive

# compound, system, groupLabel
data = [
    ("COc1cc(/C=C2\\CC/C(=C\\c3cc(OC)c(OC)c(OC)c3)C2=O)cc(OC)c1OC", "Mannose-6-phosphate isomerase (Homo sapiens) (UniProt P34949)", "inactive"),
    ("COc1ccc2c(c1)CC/C(=C/c1cc(OC)c(OC)c(OC)c1)C2=O", "Mannose-6-phosphate isomerase (Homo sapiens) (UniProt P34949)", "active"),
    ("O=C(Nc1ccc([N+](=O)[O-])cc1)C1C(c2ccccc2)=C1c1ccccc1", "Mannose-6-phosphate isomerase (Homo sapiens) (UniProt P34949)", "inactive"),
    ("O=C(c1sc2ccccc2c1Cl)N(Cc1ccccc1Cl)C1CCS(=O)(=O)C1 (centres undefined)", "Mannose-6-phosphate isomerase (Homo sapiens) (UniProt P34949)", "inactive"),
    ("COc1ccc2c(c1)CC/C(=C/c1ccncc1)C2=O", "Mannose-6-phosphate isomerase (Homo sapiens) (UniProt P34949)", "inactive"),
    ("O=c1[nH]ccc2c([N+](=O)[O-])cccc12", "Mannose-6-phosphate isomerase (Homo sapiens) (UniProt P34949)", "active"),
    ("Fc1ccc(NC(=S)N/N=C/c2ccc(F)c(F)c2)c(F)c1", "Mannose-6-phosphate isomerase (Homo sapiens) (UniProt P34949)", "inactive"),
    ("Cn1c(C(=O)N2CCCc3ccccc32)cc2sccc21", "Mannose-6-phosphate isomerase (Homo sapiens) (UniProt P34949)", "inactive"),
    ("CCC(CC)c1nnc(NC(=O)c2ccco2)s1", "Mannose-6-phosphate isomerase (Homo sapiens) (UniProt P34949)", "inactive"),
    ("COc1ccc(/C=C2\\CC/C(=C\\c3ccc(OC)c(OC)c3)C2=O)cc1OC", "Mannose-6-phosphate isomerase (Homo sapiens) (UniProt P34949)", "inactive"),
    ("Clc1cccc(Cl)c1CNc1ccc(N2CCCC2)cc1", "Mannose-6-phosphate isomerase (Homo sapiens) (UniProt P34949)", "active"),
    ("O=C(CCN1CCN(S(=O)(=O)c2ccc(Br)cc2)CC1)Nc1ccccc1F", "Mannose-6-phosphate isomerase (Homo sapiens) (UniProt P34949)", "inactive"),
    ("O=c1[nH]cnc2c([N+](=O)[O-])cccc12", "Mannose-6-phosphate isomerase (Homo sapiens) (UniProt P34949)", "inactive"),
    ("COc1cc(/C=C2\\CCc3ccccc3C2=O)cc(OC)c1OC", "Mannose-6-phosphate isomerase (Homo sapiens) (UniProt P34949)", "inactive"),
]

----------
Target: Mannose-6-phosphate isomerase (Homo sapiens)
Experiment: MPI inhibition at elevated mannose 6-phosphate – biochemical, fluorescence intensity, high mannose 6-phosphate, primary screen (AID 1220)
Conditions: recombinant PMI enzyme, coupled fluorescence intensity; at 20 µM
Screen size: about 190,000 compounds; about 1,300 (0.68%) were called active. Rule as the data show it: active = inhibition above about 50%; inactive = the rest. For the sample, actives were picked, then their nearest neighbours and some compounds at random.
Possible outcomes: true (1) for active, false (0) for inactive

# smilesRecord, groupLabel
data = [
    ("COc1cc(/C=C(\\C#N)c2nc3ccccc3[nH]2)cc(Br)c1OCc1ccccc1", "false (0)"),
    ("COc1cc(/C=C(/C#N)c2nc3ccccc3[nH]2)ccc1Oc1ncccc1[N+](=O)[O-]", "false (0)"),
    ("CC1(C)CC(=O)C(C2c3ccccc3Oc3ccccc32)C(=O)C1", "true (1)"),
    ("Cc1cc2c(C)cc(=O)oc2c2c1NCCC2", "false (0)"),
    ("Cc1c(C)c2ccc(OS(C)(=O)=O)c(C)c2oc1=O", "false (0)"),
    ("CC1(C)CC(=O)C(C2c3ccccc3S(=O)(=O)c3ccccc32)C(=O)C1", "false (0)"),
]

----------
Target: Mannose-6-phosphate isomerase (Homo sapiens) (UniProt P34949)
Experiment: MPI inhibition at elevated mannose 6-phosphate – biochemical, fluorescence intensity, high mannose 6-phosphate, primary screen (AID 1220)
Details: recombinant PMI enzyme, coupled fluorescence intensity; at 20 µM; active compounds read high
Among all 190,000 compounds or so, about 1,300 (0.68%) were called active. The entries come from a sample that favours actives as a whole.
inhibition values by entry

# molecule, readoutUnits, inhibition
records = [
    ("N#CC1=C(N)Oc2[nH]c(=S)[nH]c(=O)c2C12C(=O)Nc1ccccc12 (stereo unspecified)", "%", 46.2),
    ("COc1cc(C(=O)O/N=C(\\N)c2ccc([N+](=O)[O-])cc2)cc(OC)c1OC", "%", 5.3),
    ("CC(C)(C)C(=O)Nc1nnc(CC(=O)NCc2ccccc2)s1", "%", 13.1),
    ("CC(=O)Nc1ccc(/C=C(\\C#N)C(=O)NC2CCCCC2)cc1", "%", 4.7),
    ("Cc1onc(-c2c(F)cccc2Cl)c1C(=O)NCCO", "%", -4),
    ("Cc1ccc(CN(CC(=O)N/N=C/c2ccco2)S(=O)(=O)c2ccc(C)cc2)cc1", "%", 4.9),
]

----------
Molecular target: Mannose-6-phosphate isomerase (Homo sapiens) (UniProt P34949)
Experiment: MPI inhibition at elevated mannose 6-phosphate – biochemical, fluorescence intensity, high mannose 6-phosphate, primary screen (AID 1220)
Conditions: recombinant PMI enzyme, coupled fluorescence intensity; at 20 µM
The whole screen tested about 190,000 compounds, of which about 1,300 (0.68%) were called active. Rule as the data show it: active = inhibition above about 50%; inactive = the rest. Only a selection was taken, and actives are over-represented in it overall.
Outcomes: y for active, n for inactive

# molecule, groupLabel
data = [
    ("COc1ccc(OC)c(-c2nc3cc4ccccc4cc3nc2-c2ccccc2)c1", "n"),
    ("CCOc1cc(NC(=S)Nc2ccccc2)c(OCC)cc1NC(=O)c1ccc(OC)cc1", "y"),
    ("C(=N\\Nc1nc(N2CCOCC2)nc(N2CCOCC2)n1)/c1ccncc1", "n"),
    ("CCC(C)(C)n1nnnc1CN1CCC(NC(=O)c2ccc(Br)cc2)CC1", "n"),
    ("CCCCN1C(=O)/C(=C/C=C2\\Oc3ccccc3N2CC)SC1=S", "n"),
    ("CC(=O)Oc1c(C)cc(O)c2ccccc12", "n"),
    ("CN1CCN(C(=O)C2=C[C@H](C(C)(C)C)C[C@H](OCCCCO)O2)CC1", "n"),
    ("COc1ccc(/C(N)=N/OC(=O)COc2ccccc2Cl)cc1", "n"),
    ("Cc1ccc(/C=N/Nc2nc(N3CCOCC3)nc(N3CCOCC3)n2)o1", "n"),
    ("S=C(Nc1cccc2ccccc12)NC1CCCCC1", "n"),
    ("O=C(NC(=S)N1CCN(Cc2ccccc2)CC1)c1ccccc1", "n"),
    ("CCOC(=O)c1cc2cc3ccccc3cc2[nH]1", "y"),
    ("COc1cnc(-c2ccccn2)nc1Oc1ccccc1", "n"),
    ("CC(C)c1ccc(/C=N/Nc2cc(N3CCOCC3)nc(N3CCOCC3)n2)cc1", "y"),
    ("CN(CC(=O)N1CCCCC1)S(=O)(=O)c1cccc2cccnc12", "n"),
    ("O=C(N/N=C/C(Br)=C/c1ccccc1)C1CC1", "n"),
    ("Cc1cc2nnc(SC3CCCCN(C(=O)c4ccc(F)cc4)C3=O)n2c2ccccc12 (stereo not drawn)", "n"),
    ("CC(C)OC(=O)c1cc2ccccc2[nH]1", "n"),
    ("CCn1c(CNc2ccc(F)cc2)nnc1SCC(=O)N1CCCc2ccccc21", "n"),
    ("CCOc1cc(NC(=S)Nc2cccc(OC)c2)c(OCC)cc1NC(=O)C(C)C", "n"),
    ("CCOc1c(OC(C)=O)ccc(/C=C/c2ccc3cccc(OC)c3n2)c1[N+](=O)[O-]", "n"),
    ("COc1cc2nc(CN3CCC(Cc4ccccc4)CC3)[nH]c(=O)c2cc1OC", "n"),
    ("COc1cccc(NC(=O)C2CCCCC2)c1", "n"),
    ("Nc1nc2c(Cl)ccc(Cl)c2s1", "n"),
    ("CCCNCC1C(Oc2ccc(Cl)cc2)C(=O)N1c1ccccc1C (stereo not drawn)", "n"),
    ("O=C(NC1CCCCC1)Oc1cccc2ccccc12", "y"),
    ("COc1ccccc1-c1nc2cc3ccccc3cc2nc1-c1ccccc1OC", "y"),
    ("Cc1ccc(NC(=O)c2cc3c(s2)CCC3)cc1S(=O)(=O)N1CCOCC1", "n"),
    ("CNc1nc2ccccc2n1N", "n"),
    ("NC(=O)c1c(NC(=S)Nc2ccc(F)cc2)sc2c1CCCC2", "n"),
    ("CC(C)C1=CC(=NS(=O)(=O)c2cccc([N+](=O)[O-])c2)C=C(C(C)C)C1=O", "y"),
    ("O=C(Cn1c(NCCCO)nc2ccccc21)c1cccc(Br)c1", "n"),
    ("COc1ccc(-c2csc(Cc3nnc(N4CCOCC4)n3-c3ccccc3)n2)cc1OC", "n"),
    ("CCOC(=O)/C(=C/c1c(C)n(C)c2ccc([N+](=O)[O-])cc12)C(C)=O", "n"),
    ("CC(=O)NCC(=O)OCC(=O)Nc1ccc(C(C)=O)cc1", "n"),
    ("O=C(NCc1ccccc1)NC1CCCCC1", "n"),
    ("Nc1nc(F)cc(NCc2ccccc2)n1", "n"),
    ("O=C(NC(=S)N1CCCCC1)c1cccnc1", "n"),
]

Reference source for all entries: PubChem BioAssay AID1220
